test: chemical genetic growth profiling, strain panel (AID 1159580);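 further: tested at 20 µM; growth read once vehicle control cultures reached saturation at 30 °C; 1 = growth at the plate median or of vehicle wells; lower values mean less growth of the strain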; settings: S. cerevisiae deletion strains, growth OD, locus YLR418C, strain cdc73, active compounds read low
Hit rate of the full screen: of about 5,500 compounds, about 2,000 (36%) were called active. Inconclusive results (about 18%) are left out. The list shows a part of the results.
Experimental Readout: normalized growth
Answer as a number with no unit attached.

Some entries whose results are on file:
Q) Retrieve normalized growth measured for "COc1cc(-c2coc3cc(OCc4ccccc4)c(OC)c(O)c3c2=O)cc(O)c1OC" and print it.
A) 0.705

Q) Retrieve normalized growth measured for "COc1ccc([C@H]2Oc3cc(OC)cc(OC)c3C[C@H]2O)cc1" and print it.
A) 1.06

Q) Retrieve normalized growth measured for "COc1cc(-c2coc3cc(OC)c(OC)c(OC)c3c2=O)cc(OC)c1OC" and print it.
A) 0.984

Q) Retrieve normalized growth measured for C=C1CCC(=O)C(C)CCC2C1CC2(C)C (stereo unspecified) and print it.
A) 1.01

Q) Retrieve normalized growth measured for "OC(Cn1cncn1)(Cn1cncn1)c1ccc(F)cc1F" and print it.
A) 1.01

New cases:
Q) Retrieve normalized growth measured for "CC(C)(C)CC(C)(C)c1ccc(O)c(Cc2ccc(Cl)cc2Cl)c1" and print it.
A) 1.02

Q) Retrieve normalized growth measured for COc1ccc2c(c1OC)C(=O)OC2[C@H]1c2c(cc3c(c2OC)OCO3)CCN1C (stereo partly specified) and print it.
A) 0.984

Q) Retrieve normalized growth measured for "OCc1ccccc1O" and print it.
A) 0.962

Q) Retrieve normalized growth measured for "CC(=O)N[C@@H](CS)C(=O)O" and print it.
A) 1.05

Q) Retrieve normalized growth measured for "NC(N)=NS(=O)(=O)c1ccc(N)cc1" and print it.
A) 0.994

Q) Retrieve normalized growth measured for "COc1cc([C@@H]2c3cc4c(c(O)c3C[C@H]3COC(=O)[C@@H]32)OCO4)cc(OC)c1OC" and print it.
A) 1.01
